pKd overview
target: T1, RSV prefusion F (preF), subtype B (respiratory syncytial virus subtype B); assay: BLI, IgG
T1 construct: also called Prefusion subtype B
pKd: −log10 of the molar value.
MEASURED QUANTITY: pKd

BINDER	MEASURED VALUE
ADI-14334 (antibody, V domains shown, full-length IgG; also called Ab 2) VH: EVQLVESGGGLVKPGGSLRLSCAASGVTVSSYYMTWVRQAPGKGLEFISDISSSSTYTNYADSVKGRFTISRDNAKSSLYLQMNNLRAEDTAVYYCARLGITVTGVGYFDLWGRGTLVTVSS VL: QPGLTQPPSVSGAPGQRVTISCTGSSSNIGAGYDVHWYQQLPGTAPKLLIHDNNNRPSGVPDRFSGSKSGTSASLAITGLQVEDEADYYCQSYDSSLSNYVFGTGTKLTVL	9.21
ADI-22777 (antibody, V domains shown, full-length IgG) VH: QVQLVQSGAEVKRPGASVKVSCKASEYTFNFHDINWVRQAPGQGLEWMGWMNPKSGNTGYAQKFQGRVTMTRDTSKNTAYLELSSLRSEDTAVYYCARGYGTSWSSDSWWGQGTLVTVSS VL: SYELTQLPSVSVSPGQTARITCSGDALSKQFVYWYQQKPGLAPMLVIYKDTNRPSWIPERFSGSGSGTTATLTISEVQAEDEADYYCQSVDNSGTYGWVFGGGTKVTVL	9.12
ADI-14355 (antibody, V domains shown, full-length IgG; also called Ab 23) VH: EVQLVESGPTLVKPTQTLTLTCTFSGFSLSTSGVGVGWIRQPPGKALEWLAVIYWDDDKTYSPSLKSRLTITKDTSKNQVVLTMTNMNPVDTATYYCARCPAPVYSYGVDVWGQGTTVTVSS VL: QSALTQPASVSGSPGQSITISCTATSSDFGGYDYVSWYQQHPGEAPKLMISDVTNRPSGVSNRFSGSKSGNTASLTISGLQAEDEADYYCSSYTSYTTPYVFGTGTKLTVL	8.90
ADI-25532 (antibody, V domains shown, full-length IgG) VH: QVQLVQSGGGLVKPGGSLRLSCAASGFTFSSYSMNWVRQAPGKGLEWVSSISSSSSYIYYADSVKGRFTISRDNAKNSLYLQMNSLRAEDTAVYYCARGSSSSWYYFDYWGQGTLVTVSS VL: QSVVTQPPSVSGAPGQRVTISCTGSSSNIGAGYDVHWYQQLPGTAPKLLIYGNSNRPSGVPDRFSGSKSGTSASLAITGLQAEDEADYYCQSYDSSLSYVFGTGTKVTVL	8.81
ADI-14350 (antibody, V domains shown, full-length IgG; also called Ab 18) VH: EVQLVESGPGLVKPSETLSLTCTVSGDSVSNNNYYWNWIRQSPGKGLEWIGYIYYSGSTDYNPSLKSRVTISVDTSKNQFSLNLRSVTAADTAIYFCASAPWGMFTILGVVP VL: QSVLTQPPSVSGAPGQRVTISCTGSSSNIGAGYDVHWYQQLPGTAPKLLIYGSSNRPSGVPDRFSGSRSGTSASLAITGLQAEDEADYYCQSYDGSLGVYVFATGTKVTVL	9.24

Data provenance is patent US20260258115A1.
